// data source = the supplement of paper PMC10567573

B1: FAM189A2 (parent)
chain: VAAALRYLQIFATRRSCIDESQIS

Variants of: B1
Experiment: protein stability index of a GFP-peptide fusion (GPS, HEK-293T) (PSI 1-6); higher = more stable;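 further: lentivirally expressed fusions sorted by FACS into six bins by GFP to DsRed ratio, PSI derived from sequencing read proportions per bin multiplied by bin number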
Conditions: c terminus: a fixed tail appended
Decision: protein stability index compared against 2; not below it gives True, below it gives False.

- Biosequence: "VAAALRYLQIFATRRSCIDTSQIS"
  Discrete Label: "True"
- Biosequence: "VAAALRYLQIFATIRSCIDESQIS"
  Discrete Label: "True"
- Biosequence: "VAAALRYLQIFAGRRSCIDESQIS"
  Discrete Label: "False"
- Biosequence: "VAAALRYLQIFATRNSCIDESQIS"
  Discrete Label: "False"

Next, consider the following variant.
Ask | I'd appreciate it if you could say whether VAAALRYLQIFATRRECIDESQIS has protein stability index at least equal to 2.
Reply | False
